target: T1, DENV抗原 (DENV阳性血清) (dengue virus (DENV), serotype ); assay: sandwich ELISA, antibody at 3.125 ng/ml captured on goat anti-mouse IgG, DENV-positive serum, HRP-labelled DENV mAb
T1 construct: also called DENV antigen in DENV-positive serum

| binder | OD (450nm, 参考630nm) / OD |
| --- | --- |
| DF-5M32RMb1 (antibody, mouse IgG1, kappa, V domains shown, also called Anti-DF 5M32; Anti-DF 5M32单克隆抗体 (recombinant)) VH: QVQLQQSGAELARPGASVKLSCKASGYTFINYWMQWVKQRPGQGLEWIGAIYPGDGDTRYTQNFKGKAALTADKSSSTAYMQLSSLASEDSAVYYCATGTEGILDYWGQGTSVTVSS VL: DAVMTQTPLTLSVLIGQPASLSCKSSQSLLESDGKTYLNWLFQRPGQSPKRLIYLVSKLESGVPDRFTGSGSGTEFTLKISRVEAEDLGVYYCWQATHHPLTFGTGTNLELKR | 0.963 |

Where do these numbers come from? They come from patent CN116082499A.
